Values from patent US20250313535A1

Molecular target: α4β1 integrin (Homo sapiens (Human), UniProt P05556+P13612)
Sequence (P13612 34-1032): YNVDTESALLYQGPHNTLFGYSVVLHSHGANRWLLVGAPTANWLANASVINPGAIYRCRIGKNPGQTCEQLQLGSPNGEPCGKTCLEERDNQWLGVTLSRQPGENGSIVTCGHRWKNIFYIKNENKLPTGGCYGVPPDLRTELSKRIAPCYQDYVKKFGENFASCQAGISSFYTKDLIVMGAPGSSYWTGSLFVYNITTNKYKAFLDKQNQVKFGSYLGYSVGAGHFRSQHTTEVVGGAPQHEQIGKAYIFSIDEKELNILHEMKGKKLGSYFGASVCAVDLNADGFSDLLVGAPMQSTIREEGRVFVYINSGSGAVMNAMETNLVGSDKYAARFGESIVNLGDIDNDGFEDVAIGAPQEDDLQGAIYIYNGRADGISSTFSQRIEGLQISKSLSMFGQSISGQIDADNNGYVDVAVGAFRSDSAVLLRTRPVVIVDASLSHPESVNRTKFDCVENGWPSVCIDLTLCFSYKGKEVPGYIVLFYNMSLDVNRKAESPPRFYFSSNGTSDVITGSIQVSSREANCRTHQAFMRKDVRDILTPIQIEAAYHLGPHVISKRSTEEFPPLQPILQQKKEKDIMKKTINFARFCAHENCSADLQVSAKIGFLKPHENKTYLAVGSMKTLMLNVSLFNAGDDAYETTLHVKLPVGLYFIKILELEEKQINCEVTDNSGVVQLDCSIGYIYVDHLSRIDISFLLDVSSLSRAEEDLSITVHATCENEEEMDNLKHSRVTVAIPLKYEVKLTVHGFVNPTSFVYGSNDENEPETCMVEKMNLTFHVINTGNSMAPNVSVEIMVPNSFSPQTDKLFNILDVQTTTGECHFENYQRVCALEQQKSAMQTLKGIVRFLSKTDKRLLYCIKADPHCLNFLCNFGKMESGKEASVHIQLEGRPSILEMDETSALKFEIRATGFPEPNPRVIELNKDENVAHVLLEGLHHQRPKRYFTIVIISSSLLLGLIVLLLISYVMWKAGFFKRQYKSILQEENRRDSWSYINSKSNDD
Sequence (P05556 21-798): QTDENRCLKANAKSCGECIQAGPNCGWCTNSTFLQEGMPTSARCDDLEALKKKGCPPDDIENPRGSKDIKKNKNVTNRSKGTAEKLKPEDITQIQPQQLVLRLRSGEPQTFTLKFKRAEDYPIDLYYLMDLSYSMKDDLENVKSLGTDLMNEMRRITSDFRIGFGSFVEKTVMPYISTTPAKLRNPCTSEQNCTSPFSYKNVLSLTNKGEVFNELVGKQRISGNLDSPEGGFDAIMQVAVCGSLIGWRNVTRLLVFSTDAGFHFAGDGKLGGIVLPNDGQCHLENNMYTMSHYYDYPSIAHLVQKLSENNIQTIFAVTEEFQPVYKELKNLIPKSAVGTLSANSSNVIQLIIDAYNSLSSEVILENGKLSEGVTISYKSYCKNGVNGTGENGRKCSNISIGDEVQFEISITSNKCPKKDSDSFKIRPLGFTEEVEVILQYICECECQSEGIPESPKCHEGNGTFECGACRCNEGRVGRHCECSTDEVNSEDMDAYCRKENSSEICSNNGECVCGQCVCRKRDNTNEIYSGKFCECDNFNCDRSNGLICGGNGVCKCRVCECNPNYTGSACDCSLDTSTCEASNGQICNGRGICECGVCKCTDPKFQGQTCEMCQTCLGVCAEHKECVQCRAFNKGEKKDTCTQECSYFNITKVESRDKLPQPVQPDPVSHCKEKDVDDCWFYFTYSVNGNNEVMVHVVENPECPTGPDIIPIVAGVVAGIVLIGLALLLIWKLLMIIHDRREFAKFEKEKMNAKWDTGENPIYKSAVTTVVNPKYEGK
Test: Integrin Adhesion Assay: Protocol 2 (VCAM-coated plate, Jurkat cells, CellTiter GLO readout)
Format: cell-based
Settings: determined by at least one of the assays described (protocol not specified)
Would you kindly list IC50 for each of these compounds?

Specify measured IC50 for CC[C@@H](Nc1cc(F)c(C(=O)N[C@@H](Cc2cccc3c(-n4c(=O)ccn(C)c4=O)cccc23)C(=O)O)c(F)c1)C(F)(F)F [Compound 112] .
> 1000 nM

Specify measured IC50 for Cn1ccc(=O)n(-c2cccc3c(C[C@H](NC(=O)C4(C)CCN(C5COC5)CC4)C(=O)O)cccc23)c1=O [Compound 60] .
> 1000 nM

Specify measured IC50 for Cn1ccc(C(F)(F)F)c(-c2nccc3c(C[C@H](NC(=O)c4c(F)cc(N5CCOC[C@@H]5C5CC5)cc4F)C(=O)O)cccc23)c1=O [Compound 251] .
> 1000 nM

Specify measured IC50 for Cn1ccc(=O)n(-c2cccc3c(C[C@H](NC(=O)C(C)(C)c4cccc(-c5ccccc5)c4)C(=O)O)cccc23)c1=O [Compound 176] .
> 1000 nM

Specify measured IC50 for Cn1ccc(=O)n(-c2cccc3c(C[C@H](NC(=O)c4cc(C(=O)N5CCc6ccccc6C5)n(-c5ccccc5)n4)C(=O)O)cccc23)c1=O [Compound 44] .
> 1000 nM

Specify measured IC50 for Cn1ccc(C(F)(F)F)c(-c2nccc3c(C[C@H](NC(=O)c4c(F)cc(N5CCOC[C@H]5C5CC5)cc4F)C(=O)O)cccc23)c1=O [Compound 257] .
> 1000 nM

====

Would you kindly list IC50 for each of these compounds?
Biological target: α4β1 integrin (Homo sapiens (Human), UniProt P05556+P13612)
Assay: Integrin Adhesion Assay: Protocol 5 (VCAM-coated plate, RPMI-8866 cells with stable LOF mutation of the ITGB7 gene)
Format: cell-based
Conditions: RPMI-8866 cells with stable LOF mutation of the ITGB7 gene; read-out: Mean IC50 α4β1 KO^b

Print α4β1 integrin (Homo sapiens (Human), UniProt P05556+P13612) IC50 for COc1ccc(CN2C(C)CCCC2C)c(OC)c1-c1cccc2c(C[C@H](NC(=O)c3c(C)cccc3F)C(=O)O)cccc12 (stereo partly drawn) [Compound 632] .
0.1 to 1 µM

Print α4β1 integrin (Homo sapiens (Human), UniProt P05556+P13612) IC50 for COC(=O)[C@H](Cc1cccc2c(-c3nccc4cc(CCN(C)C)ccc34)cccc12)NC(=O)OC(C)(C)C [Compound 471] .
0.1 to 1 µM

Print α4β1 integrin (Homo sapiens (Human), UniProt P05556+P13612) IC50 for COc1ccc(CN(C)C)c(OC)c1-c1cccc2c(C[C@H](NC(=O)c3c(F)cccc3CN3CCC(F)(F)CC3)C(=O)O)cccc12 [Compound 452] .
0.1 to 1 µM

Print α4β1 integrin (Homo sapiens (Human), UniProt P05556+P13612) IC50 for CC[C@@H](N1CCC(C(=O)N[C@@H](Cc2cccc3c(-c4c(C(F)(F)F)c5ccccc5n(C)c4=O)cccc23)C(=O)O)(C(F)(F)F)CC1)C(F)(F)F [Compound 484] .
> 1 µM

Print α4β1 integrin (Homo sapiens (Human), UniProt P05556+P13612) IC50 for COc1ccc(CN2CCC[C@@H](F)C2)c(OC)c1-c1cccc2c(C[C@H](NC(=O)c3c(C)cccc3F)C(=O)O)cccc12 [Compound 672] .
0.1 to 1 µM

Print α4β1 integrin (Homo sapiens (Human), UniProt P05556+P13612) IC50 for CC(C)(C)C1CCN(Cc2cccc3c(-c4cccc5c(C[C@H](NC(=O)C6(C(F)(F)F)CCN(CC(F)(F)F)CC6)C(=O)O)cccc45)nccc23)CC1 [Compound 659] .
> 1 µM
